# Tested on: mouse uterus
# assay-details: Antiuterotrophic test on infantile mouse (anti-estrogen activity)
# Format: in vivo
# test-context: infantile mouse, dose 25 ug (per animal); read-out: Antiuterotrophic Test Inhib. (%)
readout-name: inhibition in vivo at 0.025 mg (%)

[[record]]
smiles_repr = "Cc1c(-c2ccc(O)cc2)n(CCCCCC(=O)NCc2ccccc2)c2ccc(O)cc12"
unit_tag = "%"
quantitative_result = 12

[[record]]
smiles_repr = "Cc1c(-c2ccc(O)cc2)n(CCCCCC(=O)N2CCCCC2)c2ccc(O)cc12"
unit_tag = "%"
quantitative_result = 22

[[record]]
smiles_repr = "Cc1c(-c2ccc(O)cc2)n(CCCCN2CCCC2)c2ccc(O)cc12"
unit_tag = "%"
quantitative_result = 78

[[record]]
smiles_repr = "Cc1c(-c2ccc(O)cc2)n(CCCCCC(=O)N2CCCC2)c2ccc(O)cc12"
unit_tag = "%"
quantitative_result = 29

[[record]]
smiles_repr = "Cc1c(-c2ccc(O)cc2)n(CCCCCCN2CCOCC2)c2ccc(O)cc12"
unit_tag = "%"
quantitative_result = 18

[[record]]
smiles_repr = "CNCCCCCCn1c(-c2ccc(O)cc2)c(C)c2cc(O)ccc21"
unit_tag = "%"
quantitative_result = 43

[[record]]
smiles_repr = "Cc1c(-c2ccc(O)cc2)n(CCCCCCNCc2ccccc2)c2ccc(O)cc12"
unit_tag = "%"
quantitative_result = 43

[[record]]
smiles_repr = "Cc1c(-c2ccc(O)cc2)n(CCCCCCN)c2ccc(O)cc12"
unit_tag = "%"
quantitative_result = 102

[[record]]
smiles_repr = "CCN(CC)C(=O)CCCCCn1c(-c2ccc(O)cc2)c(C)c2cc(O)ccc21"
unit_tag = "%"
quantitative_result = 13

[[record]]
smiles_repr = "CCN(CC)CCCCCCn1c(-c2ccc(O)cc2)c(C)c2cc(O)ccc21"
unit_tag = "%"
quantitative_result = 8


* * *

# target-desc: estrogen receptor (Bos taurus, UniProt P49884)
# Construct: estrogen receptor from calf uterus; from tissue; host or cells: calf uterus
# Sequence (P49884 whole entry): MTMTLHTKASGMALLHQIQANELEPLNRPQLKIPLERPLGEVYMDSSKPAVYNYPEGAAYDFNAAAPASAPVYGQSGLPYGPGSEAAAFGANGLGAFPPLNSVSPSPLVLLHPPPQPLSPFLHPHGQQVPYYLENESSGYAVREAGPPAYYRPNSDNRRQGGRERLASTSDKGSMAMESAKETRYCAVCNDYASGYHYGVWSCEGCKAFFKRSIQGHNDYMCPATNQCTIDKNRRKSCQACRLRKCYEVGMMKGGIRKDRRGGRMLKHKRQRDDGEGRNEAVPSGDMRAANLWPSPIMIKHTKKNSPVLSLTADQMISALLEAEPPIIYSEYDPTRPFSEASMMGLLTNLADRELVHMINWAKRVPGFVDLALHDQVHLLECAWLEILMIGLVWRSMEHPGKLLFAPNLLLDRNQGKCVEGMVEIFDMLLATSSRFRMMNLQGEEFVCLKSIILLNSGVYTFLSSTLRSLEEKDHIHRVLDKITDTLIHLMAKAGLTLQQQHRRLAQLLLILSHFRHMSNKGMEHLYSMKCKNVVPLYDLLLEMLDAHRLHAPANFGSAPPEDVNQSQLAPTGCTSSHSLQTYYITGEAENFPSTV
# assay-details: relative binding affinity (RBA) for the estrogen receptor from calf uterus, displacement of 3H-17β estradiol
# test-context: calf uterus; relative to 17 beta estradiol = 100
readout-name: RBA (relative binding affinity for the estrogen receptor)

[[record]]
smiles_repr = "Cc1c(-c2ccc(O)cc2)n(CCCCCC(=O)N2CCCCC2)c2ccc(O)cc12"
quantitative_result = 19

[[record]]
smiles_repr = "Cc1c(-c2ccc(O)cc2)n(CCCCCCN2CCOCC2)c2ccc(O)cc12"
quantitative_result = 10

[[record]]
smiles_repr = "CCN(CC)CCCCCCn1c(-c2ccc(O)cc2)c(C)c2cc(O)ccc21"
quantitative_result = 14

[[record]]
smiles_repr = "Cc1c(-c2ccc(O)cc2)n(CCCCCC(=O)NCc2ccccc2)c2ccc(O)cc12"
quantitative_result = 12

[[record]]
smiles_repr = "CCN(CC)C(=O)CCCCCn1c(-c2ccc(O)cc2)c(C)c2cc(O)ccc21"
quantitative_result = 15

[[record]]
smiles_repr = "Cc1c(-c2ccc(O)cc2)n(CCCCCCCCN2CCCC2)c2ccc(O)cc12"
quantitative_result = 7.6

[[record]]
smiles_repr = "Cc1c(-c2ccc(O)cc2)n(CCCCCCN2CCCCC2)c2ccc(O)cc12"
quantitative_result = 23

[[record]]
smiles_repr = "CNCCCCCCn1c(-c2ccc(O)cc2)c(C)c2cc(O)ccc21"
quantitative_result = 27

[[record]]
smiles_repr = "Oc1ccc(-c2cc3cc(O)ccc3n2CCCCCCN2CCCCC2)cc1"
quantitative_result = 1.3

[[record]]
smiles_repr = "Cc1c(-c2ccc(O)cc2)n(CCCCCC(=O)N2CCCC2)c2ccc(O)cc12"
quantitative_result = 7

[[record]]
smiles_repr = "Cc1c(-c2ccc(O)cc2)n(CCCCCCN(C)C)c2ccc(O)cc12"
quantitative_result = 12

[[record]]
smiles_repr = "Cc1c(-c2ccc(O)cc2)n(CCCCN2CCCC2)c2ccc(O)cc12"
quantitative_result = 3.6

[[record]]
smiles_repr = "Cc1c(-c2ccc(O)cc2)n(CCCCCCNCc2ccccc2)c2ccc(O)cc12"
quantitative_result = 15

[[record]]
smiles_repr = "Cc1c(-c2ccc(O)cc2)n(CCCCCC(=O)N2CCOCC2)c2ccc(O)cc12"
quantitative_result = 26

[[record]]
smiles_repr = "Oc1ccc(-c2cc3cc(O)ccc3n2CCCCCCN2CCCC2)cc1"
quantitative_result = 2.3


From: patent US5023254A
